FYI, the data here is from patent US20100183625A1.

# TARGET_OF_ASSAY: T1, pKal (Homo sapiens, UniProt P03952)
# T1 construct: two disulfide linked polypeptides; a heavy chain of approximately 52 kDa and a catalytic domain of approximately 34 kDa; host or cells: human plasma
# EXPERIMENT_DESCRIPTION: Fab fragments (small scale) tested for inhibition against human pKal in an in vitro protease cleavage assay
# Assay type: biochemical
# RUN_CONDITIONS: Table 9
MEASURED_METRIC: Inhibit as a Fab?

Before answering, review these 5 worked examples.
X69-B08: single point mutation of M142-H08 (P1′); HV-CDR3 GGLLLWFRNLKSNYFDY (antibody, V domains shown) VL: QDIQMTQSPSSLSAFVGDRVTITCRASQPIDNYLNWYHQKPGKAPKLLIYAASRLQSGVPSRLSGSGFGTDFTLTISSLQPEDFGNYYCQQSYTVPYTFGGGTKVEIR VH: EVQLLESGGGLVQPGGSLRLSCAASGFTFSAYSMIWVRQAPGKGLEWVSYIRPSGGRTTYADSVKGRFTISRDNSKNTLYLQMNSLRAEDTAVYYCARGGLLLWFRNLKSNYFDYWGQGTLVTVSSASTKGPSVFPLAPSSKS :: Yes
X69-E05: single point mutation of M142-H08 (P1′); HV-CDR3 GGLLLWFRRLKSNYFDY (antibody, V domains shown) VL: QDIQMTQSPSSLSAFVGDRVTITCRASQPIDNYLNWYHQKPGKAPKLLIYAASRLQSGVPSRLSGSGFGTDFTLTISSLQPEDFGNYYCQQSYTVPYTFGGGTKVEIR VH: EVQLLESGGGLVQPGGSLRLSCAASGFTFSAYSMIWVRQAPGKGLEWVSYIRPSGGRTTYADSVKGRFTISRDNSKNTLYLQMNSLRAEDTAVYYCARGGLLLWFRRLKSNYFDYWGQGTLVTVSSASTKGPSVFPLAPSSKS :: No
X67-B03: single point mutation of M142-H08 (P2); HV-CDR3 GGLLLWSRELKSNYFDY (antibody, V domains shown) VL: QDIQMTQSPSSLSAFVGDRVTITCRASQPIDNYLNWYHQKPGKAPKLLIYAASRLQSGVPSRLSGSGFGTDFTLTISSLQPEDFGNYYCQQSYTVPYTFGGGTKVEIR VH: EVQLLESGGGLVQPGGSLRLSCAASGFTFSAYSMIWVRQAPGKGLEWVSYIRPSGGRTTYADSVKGRFTISRDNSKNTLYLQMNSLRAEDTAVYYCARGGLLLWSRELKSNYFDYWGQGTLVTVSSASTKGPSVFPLAPSSKS :: Yes
X68-G05: single point mutation of M142-H08 (P3); HV-CDR3 GGLLLSFRELKSNYFDY (antibody, V domains shown) VL: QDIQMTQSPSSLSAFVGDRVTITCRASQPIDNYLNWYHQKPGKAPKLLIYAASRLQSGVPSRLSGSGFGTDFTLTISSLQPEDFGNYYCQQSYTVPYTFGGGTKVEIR VH: EVQLLESGGGLVQPGGSLRLSCAASGFTFSAYSMIWVRQAPGKGLEWVSYIRPSGGRTTYADSVKGRFTISRDNSKNILYLQMNSLRAEDTAVYYCARGGLLLSFRELKSNYFDYWGQGTLVTVSSASTKGPSVFPLAPSSKS :: No
X67-C09: single point mutation of M142-H08 (P2); HV-CDR3 GGLLLWGRELKSNYFDY (antibody, V domains shown) VL: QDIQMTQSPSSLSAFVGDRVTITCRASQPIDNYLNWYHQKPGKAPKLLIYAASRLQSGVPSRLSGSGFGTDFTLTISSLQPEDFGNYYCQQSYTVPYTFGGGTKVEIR VH: EVQLLESGGGLVQPGGSLRLSCAASGFTFSAYSMIWVRQAPGKGLEWVSYIRPSGGRTTYADSVKGRFTISRDNSKNTLYLQMNSLRAEDTAVYYCARGGLLLWGRELKSNYFDYWGQGTLVTVSSASTKGPSVFPLAPSSKS :: Yes

Query string: Need Inhibit as a Fab? of X67-E04: single point mutation of M142-H08 (P2); HV-CDR3 GGLLLWDRELKSNYFDY (antibody, V domains shown) VL: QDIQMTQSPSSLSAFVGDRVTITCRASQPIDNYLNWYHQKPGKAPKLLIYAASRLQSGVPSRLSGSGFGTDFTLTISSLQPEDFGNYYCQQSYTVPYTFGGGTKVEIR VH: EVQLLESGGGLVQPGGSLRLSCAASGFTFSAYSMIWVRQAPGKGLEWVSYIRPSGGRTTYADSVKGRFTISRDNSKNTLYLQMNSLRAEDTAVYYCARGGLLLWDRELKSNYFDYWGQGTLVTVSSASTKGPSVFPLAPSSKS , thanks.
Result string: Yes

Query string: Need Inhibit as a Fab? of X69-A10: single point mutation of M142-H08 (P1′); HV-CDR3 GGLLLWFRPLKSNYFDY (antibody, V domains shown) VL: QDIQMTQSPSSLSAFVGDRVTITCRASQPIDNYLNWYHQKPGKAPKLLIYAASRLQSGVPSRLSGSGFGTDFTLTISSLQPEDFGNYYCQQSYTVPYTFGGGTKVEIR VH: EVQLLESGGGLVQPGGSLRLSCAASGFTFSAYSMIWVRQAPGKGLEWVSYIRPSGGRTTYADSVKGRFTISRDNSKNTLYLQMNSLRAEDTAVYYCARGGLLLWFRPLKSNYFDYWGQGTLVTVSSASTKGPSVFPLAPSSKS , thanks.
Result string: No

Query string: Need Inhibit as a Fab? of X68-E12: single point mutation of M142-H08 (P3); HV-CDR3 GGLLLCFRELKSNYFDY (antibody, V domains shown) VL: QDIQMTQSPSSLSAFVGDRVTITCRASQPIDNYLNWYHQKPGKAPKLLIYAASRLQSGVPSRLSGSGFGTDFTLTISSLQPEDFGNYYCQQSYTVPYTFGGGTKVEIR VH: EVQLLESGGGLVQPGGSLRLSCAASGFTFSAYSMIWVRQAPGKGLEWVSYIRPSGGRTTYADSVKGRFTISRDNSKNTLYLQMNSLRAEDTAVYYCARGGLLLCFRELKSNYFDYWGQGTLVTVSSASTKGPSVFPLAPSSKS , thanks.
Result string: No
